Assayed system: T1, rhIL-17A (human, UniProt Q16552 24-155)
T1 sequence: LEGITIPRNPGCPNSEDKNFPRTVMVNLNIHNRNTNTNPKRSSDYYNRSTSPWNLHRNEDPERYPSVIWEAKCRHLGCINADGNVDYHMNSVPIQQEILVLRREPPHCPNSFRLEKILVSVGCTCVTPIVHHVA
Assay notes: cell-based or functional assay
Listed here are binders together with their documented IC50, synoviocyte IL-8 production, rhIL-17A (30 ng/ml).
Phrase the answer as number then unit, nothing more needed.

humanized 16C10 (VH N54Q/M96A) (antibody, human IgG1, kappa, V domains shown, Human IgG1/kappa; also called hu 16C10; hu16C10) VH: QVQLQESGPGLVKPSETLSLTCTVSGFSLPSHSVSWIRQPPGKGLEWIGIIWNQGGTDYNSAFKSRVTISVDTSKNQFSLKLSSVTAADTAVYYCARNAYITDYYYENYFMDAWGQGTLVTVSS VL: DIVMTQSPLSLPVTPGEPASISCKSSQSLLFSENQKNYLAWYLQKPGQSPQLLIYWTSTRQSGVPDRFSGSGSGTDFTLKISRVEAEDVGVYYCQQSYYTPYTFGQGTKVEIKR :: 0.038 µg/mL

Exercise: Can you share its IC50, synoviocyte IL-8 production, rhIL-17A (30 ng/ml)? I mean this binder: hu 16C10 VH N54Q (antibody, human IgG1, V domains shown, Variant of hu 16C10 wt; Human IgG1/kappa; also called hu16C10 (N54Q)) VH: QVQLQESGPGLVKPSETLSLTCTVSGFSLPSHSVSWIRQPPGKGLEWIGIIWNQGGTDYNSAFKSRVTISVDTSKNQFSLKLSSVTAADTAVYYCARNMYITDYYYENYFMDAWGQGTLVTVSS VL: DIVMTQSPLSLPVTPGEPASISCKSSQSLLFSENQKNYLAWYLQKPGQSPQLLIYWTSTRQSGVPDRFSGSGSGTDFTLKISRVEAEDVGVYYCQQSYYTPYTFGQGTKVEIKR
Key: 0.025 µg/mL

Exercise: Can you share its IC50, synoviocyte IL-8 production, rhIL-17A (30 ng/ml)? I mean this binder: hu 16C10 VH M96A (antibody, human IgG1, V domains shown, Variant of hu 16C10 wt; Human IgG1/kappa; also called hu16C10 (M96A)) VH: QVQLQESGPGLVKPSETLSLTCTVSGFSLPSHSVSWIRQPPGKGLEWIGIIWNNGGTDYNSAFKSRVTISVDTSKNQFSLKLSSVTAADTAVYYCARNAYITDYYYENYFMDAWGQGTLVTVSS VL: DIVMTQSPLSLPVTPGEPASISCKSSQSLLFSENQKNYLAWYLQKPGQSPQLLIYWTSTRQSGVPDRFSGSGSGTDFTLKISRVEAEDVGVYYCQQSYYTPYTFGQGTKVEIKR
Key: 0.025 µg/mL

Exercise: Can you share its IC50, synoviocyte IL-8 production, rhIL-17A (30 ng/ml)? I mean this binder: rat 16C10 (antibody, rat IgG1, V domains shown, also called 16C10C; antibody 16C10) VH: QVELRESGPGLVQPSQTLSLTCTVSGFSLPSHSVSWIRQPPGKGLEWMGIIWNNGGTDYNSAFKSRLTISRDTSKSQVFLKMNSLQTEDTAMYFCARNMYITDYYYENYFMDAWGQGASVTVSS VL: DIVMTQSPSSLAVSIGETVTLNCKSSQSLLFSENQKNYLAWYQHKSGQSPKLLVYWTSTRQSGVPDRFMGSGSGTDFTLTISSVQAEDLAIYYCQQSYYTPYTFGAGTKLELKR
Key: 0.038 µg/mL

Exercise: Can you share its IC50, synoviocyte IL-8 production, rhIL-17A (30 ng/ml)? I mean this binder: hu 16C10 VH M96K (antibody, human IgG1, V domains shown, Variant of hu 16C10 wt; Human IgG1/kappa; also called hu16C10 (M96K)) VH: QVQLQESGPGLVKPSETLSLTCTVSGFSLPSHSVSWIRQPPGKGLEWIGIIWNNGGTDYNSAFKSRVTISVDTSKNQFSLKLSSVTAADTAVYYCARNKYITDYYYENYFMDAWGQGTLVTVSS VL: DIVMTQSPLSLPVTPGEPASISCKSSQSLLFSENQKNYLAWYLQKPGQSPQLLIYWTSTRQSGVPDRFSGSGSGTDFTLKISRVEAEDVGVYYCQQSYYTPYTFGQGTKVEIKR
Key: 0.025 µg/mL

All values here come from patent US20090175881A1.
